Origin of values: ChEMBL document CHEMBL1136812

Biological target: UniProt P20309
pKi: −log10 of the molar value.
pKi vs 6: at or above is true (1), below is false (0).

Q: Form field: pKi at least 6? Entry: CC(C1=C(CCCN(C)C)Cc2ccccc21)c1ccccn1 (stereo unspecified)
Result: true (1)

Q: Form field: pKi at least 6? Entry: CN(C)CCC1=C(Cc2ccncc2)c2ccccc2C1
Result: false (0)

Q: Form field: pKi at least 6? Entry: CCC(C1=C(CCN(C)C)Cc2cc(Cl)ccc21)c1ccccn1 (stereo unspecified)
Result: true (1)

Q: Form field: pKi at least 6? Entry: CN(C)CCOC(=O)C1=C(Cc2ccccn2)c2ccccc2C1
Result: false (0)

Q: Form field: pKi at least 6? Entry: CC(C1=C(CCN(C)C)Cc2cc(Cl)ccc21)c1ccccn1 (stereo unspecified)
Result: true (1)

Q: Form field: pKi at least 6? Entry: C[C@H](C1=C(CCN(C)C)Cc2ccccc21)c1ccccn1 [(S)-(+)-DIMETHINDENE]
Result: false (0)

Q: Form field: pKi at least 6? Entry: Cc1ccc2c(c1)C(C(C)c1ccccn1)=C(CCN(C)C)C2 (stereo unspecified)
Result: false (0)

Q: Form field: pKi at least 6? Entry: CN(C)CCC1=C(Cc2ccccn2)c2ccccc2C1
Result: false (0)

Q: Form field: pKi at least 6? Entry: CC(C1=C(CCN(C(C)C)C(C)C)Cc2ccccc21)c1ccccn1 (stereo in doubt; 19)
Result: false (0)

###

Target: Muscarinic acetylcholine receptor M5 (Homo sapiens, UniProt P08912)
Sequence (P08912 whole entry): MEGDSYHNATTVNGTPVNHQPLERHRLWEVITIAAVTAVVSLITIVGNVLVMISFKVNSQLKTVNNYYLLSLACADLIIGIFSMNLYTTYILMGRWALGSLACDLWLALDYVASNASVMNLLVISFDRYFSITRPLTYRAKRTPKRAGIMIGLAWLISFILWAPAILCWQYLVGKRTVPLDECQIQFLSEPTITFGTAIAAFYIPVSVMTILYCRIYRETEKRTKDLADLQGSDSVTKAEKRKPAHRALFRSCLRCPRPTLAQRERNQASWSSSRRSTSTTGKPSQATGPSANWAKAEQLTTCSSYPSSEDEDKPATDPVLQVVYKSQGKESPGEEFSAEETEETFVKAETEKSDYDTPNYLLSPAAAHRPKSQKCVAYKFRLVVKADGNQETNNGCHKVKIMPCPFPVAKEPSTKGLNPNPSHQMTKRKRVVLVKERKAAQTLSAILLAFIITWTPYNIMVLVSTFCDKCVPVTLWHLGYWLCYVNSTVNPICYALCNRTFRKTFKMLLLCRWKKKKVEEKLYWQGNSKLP
Ki class ranges: LOW = under 0.8 µM, MID = from 0.8 µM up to 6 µM, HIGH = 6 µM and over

Worked set:
{"columns": ["molecule", "measured-target", "class-label"],
 "data": [
  ["CC(C1=C(CN(C)C(C)C)Cc2ccccc21)c1ccccn1 (configuration not stated)", "Muscarinic acetylcholine receptor M5 (Homo sapiens, UniProt P08912)", "MID"],
  ["COc1ccc2c(c1)C(C(C)c1ccccn1)=C(CCN(C)C)C2 (configuration not stated)", "Muscarinic acetylcholine receptor M5 (Homo sapiens, UniProt P08912)", "HIGH"],
  ["CN(C)CCOC(=O)C1=C(Cc2ccccn2)c2ccccc2C1", "Muscarinic acetylcholine receptor M5 (Homo sapiens, UniProt P08912)", "HIGH"]
]}

Q: Exercise: read the entry CC(C1=C(CCN(C)C)Cc2ccccc21)c1ccccc1 (configuration not stated) and state which class it falls under.
Result: LOW

Q: Exercise: read the entry C[C@@H](C1=C(CCN(C)C)Cc2ccccc21)c1ccccn1 and state which class it falls under.
Result: LOW

Q: Exercise: read the entry CC(C1=C(CCN(C)CCF)Cc2ccccc21)c1ccccn1 (configuration not stated) and state which class it falls under.
Result: MID

Q: Exercise: read the entry CC(C1=C(CCN2CCOCC2)Cc2ccccc21)c1ccccn1 (configuration not stated) and state which class it falls under.
Result: MID

Q: Exercise: read the entry CN(C)CCNC(=O)C1=C(Cc2ccncc2)c2ccccc2C1 and state which class it falls under.
Result: HIGH

Q: Exercise: read the entry CC(C1=C(CCN(C)C)Cc2cc(Cl)ccc21)c1ccccn1 (configuration not stated) and state which class it falls under.
Result: LOW

Q: Exercise: read the entry CC(C1=C(CCN(C)C)Cc2ccc(F)cc21)c1ccccn1 (configuration not stated) and state which class it falls under.
Result: MID

Q: Exercise: read the entry CC(C1=C(CN(C)C)Cc2ccccc21)c1ccccn1 (configuration not stated) and state which class it falls under.
Result: LOW

###

Target protein (sequence): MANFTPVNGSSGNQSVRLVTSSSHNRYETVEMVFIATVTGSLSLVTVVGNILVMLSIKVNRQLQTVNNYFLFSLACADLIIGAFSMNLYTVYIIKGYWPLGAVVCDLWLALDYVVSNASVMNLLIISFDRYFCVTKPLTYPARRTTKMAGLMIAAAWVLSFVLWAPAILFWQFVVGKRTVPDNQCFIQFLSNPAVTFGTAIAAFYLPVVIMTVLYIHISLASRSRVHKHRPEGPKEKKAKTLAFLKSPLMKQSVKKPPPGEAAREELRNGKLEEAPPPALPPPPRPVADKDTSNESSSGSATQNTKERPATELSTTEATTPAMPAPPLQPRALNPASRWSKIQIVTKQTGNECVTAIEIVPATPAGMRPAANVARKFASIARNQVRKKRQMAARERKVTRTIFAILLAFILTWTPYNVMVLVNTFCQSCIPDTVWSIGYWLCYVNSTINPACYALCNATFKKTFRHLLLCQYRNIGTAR
observation-type: pKi
Just so you know, pKi here is -log10 of the concentration in molar units; reply with that number alone.

{"columns": ["compound", "pKi"],
 "data": [
  ["CC(C1=C(CCN(C(C)C)C(C)C)Cc2ccccc21)c1ccccn1 (stereo in doubt; (+)-19)", 5.26]
]}

# compound CC(C1=C(CCN2CCOCC2)Cc2ccccc21)c1ccccn1 (centres undefined) ; its pKi = 5.38

# compound CCC(C1=C(CCN(C)C)Cc2cc(Cl)ccc21)c1ccccn1 (centres undefined) ; its pKi = 6.08

# compound CC(C1=C(CCN(C)C(C)C)Cc2ccccc21)c1ccccn1 (centres undefined) ; its pKi = 6.00

###

Molecular target: Muscarinic acetylcholine receptor M2 (Homo sapiens, UniProt P08172)
Sequence (P08172 whole entry): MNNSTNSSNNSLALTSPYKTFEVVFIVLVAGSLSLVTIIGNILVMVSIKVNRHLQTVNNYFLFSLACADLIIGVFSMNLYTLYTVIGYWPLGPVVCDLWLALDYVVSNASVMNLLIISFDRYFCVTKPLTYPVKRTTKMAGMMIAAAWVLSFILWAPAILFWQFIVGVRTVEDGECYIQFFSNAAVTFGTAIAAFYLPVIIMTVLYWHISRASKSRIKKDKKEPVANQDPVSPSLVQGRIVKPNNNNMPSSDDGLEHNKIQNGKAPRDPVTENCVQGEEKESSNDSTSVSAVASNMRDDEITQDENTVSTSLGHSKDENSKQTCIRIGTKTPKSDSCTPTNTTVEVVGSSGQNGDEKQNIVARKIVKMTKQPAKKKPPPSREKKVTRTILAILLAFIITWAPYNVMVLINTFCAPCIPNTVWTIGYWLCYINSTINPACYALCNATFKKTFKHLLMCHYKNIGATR
Rule for this label: 1 means Ki is less than 100 nM; 0 means Ki is at least 100 nM.

{"columns": ["compound", "class-label"],
 "data": [
  ["CC(C1=C(CCN(C)C)Cc2ccccc21)c1ccccc1 (stereo unspecified)", 0],
  ["C[C@H](C1=C(CCN(C)C)Cc2ccccc21)c1ccccn1 [(S)-(+)-DIMETHINDENE]", 0],
  ["CC(C1=C(CCN(C)C)Cc2ccc(F)cc21)c1ccccn1 (stereo unspecified)", 0],
  ["CC(C1=C(CCN(C(C)C)C(C)C)Cc2ccccc21)c1ccccn1 (stereo in doubt; 19)", 1],
  ["CN(C)CCC1=C(C(c2ccccc2)c2ccccn2)c2ccccc2C1 (stereo unspecified)", 0],
  ["CC(C1=C(CCN2CCCC2)Cc2ccccc21)c1ccccn1 (stereo unspecified)", 0],
  ["C[C@@H](C1=C(CCN(C)C)Cc2ccccc21)c1ccccn1", 1],
  ["CN(C)CCOC(=O)C1=C(Cc2cccnc2)c2ccccc2C1", 0],
  ["CN(C)CCC1=C(Cc2ccccn2)c2ccccc2C1", 0]
]}

Next compound, please.
Q: Take the compound CCN(CC)CCC1=C(C(C)c2ccccn2)c2ccccc2C1 (stereo unspecified) and say whether its Ki is less than 100 nM.
Result: 1

###

Measured Ki (Muscarinic acetylcholine receptor M3 (Homo sapiens, UniProt P20309))
Include the unit right after the number.

Below, 2 compounds whose answers are already recorded.
{"columns": ["compound", "result"],
 "data": [
  ["Cc1ccc2c(c1)CC(CCN(C)C)=C2C(C)c1ccccn1 (stereo not drawn)", "501 nM"],
  ["COc1ccc2c(c1)CC(CCN(C)C)=C2C(C)c1ccccn1 (stereo not drawn)", "1170 nM"]
]}

Attention now shifts to the item below.
# compound CC(C1=C(CCN2CCCCC2)Cc2ccccc21)c1ccccn1 (stereo not drawn) ; its Ki = 1780 nM

###

Biological target: UniProtKB P11229
Sequence (P11229 whole entry): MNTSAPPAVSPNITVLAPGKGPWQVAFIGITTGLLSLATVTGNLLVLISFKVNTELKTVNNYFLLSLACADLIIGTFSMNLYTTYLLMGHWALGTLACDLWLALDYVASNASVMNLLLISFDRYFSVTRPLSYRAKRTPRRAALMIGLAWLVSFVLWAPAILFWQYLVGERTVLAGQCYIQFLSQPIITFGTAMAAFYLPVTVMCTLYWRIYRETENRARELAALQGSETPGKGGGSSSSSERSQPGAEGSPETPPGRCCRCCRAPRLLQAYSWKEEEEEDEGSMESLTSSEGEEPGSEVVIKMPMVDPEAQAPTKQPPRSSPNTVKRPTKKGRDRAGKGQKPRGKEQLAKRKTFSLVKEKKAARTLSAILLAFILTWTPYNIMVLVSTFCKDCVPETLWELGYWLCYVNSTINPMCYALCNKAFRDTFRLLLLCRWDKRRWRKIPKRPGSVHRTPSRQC
pKi: −log10 of the molar value.
pKi vs 6: at or above is T, below is F.

Worked set:
{"columns": ["compound", "class-label"],
 "data": [
  ["Cc1ccc2c(c1)C(C(C)c1ccccn1)=C(CCN(C)C)C2 (stereo not given)", "F"],
  ["CN(C)CCC1=C(C(C)(C)c2ccccn2)c2ccccc2C1", "T"],
  ["COc1ccc2c(c1)C(C(C)c1ccccn1)=C(CCN(C)C)C2 (stereo not given)", "F"]
]}

Q: Form field: pKi at least 6? Entry: CC(C1=C(CN(C)C(C)C)Cc2ccccc21)c1ccccn1 (stereo not given)
Result: T

###

Form field: pKi (one value per entry).
Target: Muscarinic acetylcholine receptor M4 (Homo sapiens, UniProt P08173)
Sequence (P08173 whole entry): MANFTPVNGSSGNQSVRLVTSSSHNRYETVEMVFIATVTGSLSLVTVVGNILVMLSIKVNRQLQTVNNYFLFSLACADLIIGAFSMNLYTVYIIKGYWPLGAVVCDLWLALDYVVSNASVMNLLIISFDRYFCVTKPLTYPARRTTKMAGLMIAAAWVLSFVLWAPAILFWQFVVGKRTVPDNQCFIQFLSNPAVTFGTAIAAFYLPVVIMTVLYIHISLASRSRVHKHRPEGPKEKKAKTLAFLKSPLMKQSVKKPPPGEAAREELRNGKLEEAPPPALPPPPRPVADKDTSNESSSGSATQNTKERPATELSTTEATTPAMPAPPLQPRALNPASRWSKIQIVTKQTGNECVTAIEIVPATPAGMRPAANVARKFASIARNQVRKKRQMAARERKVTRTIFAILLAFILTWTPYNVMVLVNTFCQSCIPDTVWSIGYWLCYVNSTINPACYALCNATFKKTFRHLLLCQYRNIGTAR
Just so you know, pKi here is -log10 of the concentration in molar units; reply with that number alone.

Below, 8 compounds whose answers are already recorded.
{"columns": ["compound", "pKi"],
 "data": [
  ["CC(C1=C(CCN(C)CCF)Cc2ccccc21)c1ccccn1 (stereo unspecified)", 6.36],
  ["CN(C)CCOC(=O)C1=C(Cc2cccnc2)c2ccccc2C1", 4.88],
  ["CN(C)CCNC(=O)C1=C(Cc2ccccn2)c2ccccc2C1", 4.57],
  ["CC(C1=C(CCN(C)C)Cc2ccc(Cl)cc21)c1ccccn1 (stereo unspecified)", 6.13],
  ["C[C@H](C1=C(CCN(C)C)Cc2ccccc21)c1ccccn1 [(S)-(+)-DIMETHINDENE]", 5.41],
  ["CSc1ccc2c(c1)C(C(C)c1ccccn1)=C(CCN(C)C)C2 (stereo unspecified)", 5.70],
  ["CN(C)CCNC(=O)C1=C(Cc2cccnc2)c2ccccc2C1", 4.33],
  ["CC(C1=C(CCN(C)C)Cc2cc(Cl)ccc21)c1ccccn1 (stereo unspecified)", 6.48]
]}

# compound CN(C)CCC1=C(Cc2ccccn2)c2ccccc2C1 ; its pKi = 5.62

# compound C[C@@H](C1=C(CCN(C)C)Cc2ccccc21)c1ccccn1 ; its pKi = 6.53

# compound CC(C1=C(CN(C)C(C)C)Cc2ccccc21)c1ccccn1 (stereo unspecified) ; its pKi = 6.22
